- Test system: lung cancer KPL cells
- procedure_summary: Lung cancer KPL cells incubated with drug for 48 hours, observed under microscope
- Format: cell-based
- stated_conditions: 48 h incubation; IN10018 10 μM, AZD9291 10 μM, Almonertinib 4.7 μM, Alflutinib 4.7 μM, single or combined
measure_name: cell status observed under microscope

Ask | Tell me cell status observed under microscope reported for C=CC(=O)Nc1cc(Nc2nccc(-c3cn(C4CC4)c4ccccc34)n2)c(OC)cc1N(C)CCN(C)C
Reply | poor cell status

Ask | Given the compound C=CC(=O)Nc1cc(Nc2nccc(-c3cn(C)c4ccccc34)n2)c(OCC(F)(F)F)nc1N(C)CCN(C)C , write its reported cell status observed under microscope.
Reply | poor cell status

Ask | Answer with reported cell status observed under microscope of C=CC(=O)Nc1cc(Nc2nccc(-c3cn(C)c4ccccc34)n2)c(OC)cc1N(C)CCN(C)C
Reply | poor cell status

Source listed as patent US11986477B2.
